These data points were gathered from PubChem BioAssay (NCI).

Items are presented alongside their recorded growth.
system: SNB-19 CNS; test: NCI-60 one-dose screen, 48 h (100 = growth as untreated, 0 = no growth, -100 = all killed); details: 10 µM unless noted
Compounds without any hit were thinned out: in the full panel of roughly 83,000, 20% have a hit.
recordedEndpoint: growth (%)

{"compound": "COc1cccc2nc(Nc3cccc(NC(=O)c4cc(N5CCOCC5)cc(C(F)(F)F)c4)c3)ccc12", "observedValue": 74.6}
{"compound": "O=C1c2ccccc2C(=O)c2c1oc1ccc3ccccc3c21", "observedValue": 90}
{"compound": "Cc1nc2ccc(Nc3nc(NCCN4CCOCC4)nc(Nc4ccc(F)cc4)n3)cc2n1Cc1ccccc1", "observedValue": 78.7}
{"compound": "CCCCCc1c(C)[nH]c(/C=C2\\N=C(c3ccc[nH]3)C=C2CC)c1C", "observedValue": -95.4}
{"compound": "CC1=C(C(=O)Nc2ccc(F)cc2)C(c2ccc(Cl)cc2)C2=C(CC(C)(C)CC2=O)N1 (stereo not drawn)", "observedValue": 86}
{"compound": "c1ccc2c(c1)cnc1ccccc12", "observedValue": 99.2}
{"compound": "NC(=Nc1ccccc1)SCCCSC(N)=Nc1ccccc1", "observedValue": 95.8}
{"compound": "CC1=NC(c2ccc(Cl)cc2)C2=C(N1)/C(=C/c1ccc(Cl)cc1)CCC2 (stereo not drawn)", "observedValue": 102}
{"compound": "Fc1cc(-c2nnc3sc(-c4ccc(Cl)cc4)nn23)c(Cl)cc1Cl", "observedValue": 96.6}
{"compound": "CN=C1C=C/C(=N/N=c2/ccn(O)cc2C)C=C1C", "observedValue": 101}
{"compound": "COc1ccc2[nH]c(O)c(/C=c3/ccc4c(c3)N=C(c3ccc(F)cc3)N=4)c2c1", "observedValue": 87.1}
{"compound": "Nc1n[nH]c2ccc([C@@H]3Nc4c(F)cc5[nH]ncc5c4[C@H]4C5CCC(C5)[C@@H]34)cc12 (stereo partly drawn)", "observedValue": 27.9}
{"compound": "Cc1c(-c2ccc(-c3ccccc3F)cc2)nc2ccc(F)cc2c1C(=O)O", "observedValue": 41}
{"compound": "COc1ccc(C(=O)/C=C/c2cn(-c3ccccc3)nc2-c2cccc(Nc3ccnc4cc(Cl)ccc34)c2)cc1", "observedValue": 93.2}
{"compound": "CC(=O)O[C@H]1[C@H](CC#CC#CC[C@@H]2C[C@]3(C)[C@H]4CC=C5[C@H]6[C@@H](C)[C@H](C)CC[C@]6(C(=O)NCCN(CCN)CCN)CC[C@@]5(C)[C@]4(C)CC[C@H]3C(C)(C)[C@H]2OC(C)=O)C[C@]2(C)[C@H]3CC=C4[C@H]5[C@@H](C)[C@H](C)CC[C@]5(C(=O)NCCN(CCN)CCN)CC[C@@]4(C)[C@]3(C)CC[C@H]2C1(C)C", "observedValue": 31.9}
{"compound": "CCCCN(CCCC)CCC(O)c1cc2ccc(C(F)(F)F)cc2c2cc(C(F)(F)F)ccc12 (stereo not drawn)", "observedValue": 72.6}
{"compound": "COc1ccc2[nH]cc(/C=C3\\C(=O)Nc4ccccc43)c2c1", "observedValue": 73}
{"compound": "COc1cc(NCCCCC(C)N)c2nccc(C)c2c1 (stereo not drawn)", "observedValue": 94.6}
{"compound": "COC(=O)/C=C/c1cc(OC(C)=O)c2c(c1)[C@@H](C(=O)OC)[C@H](c1ccc(OC(C)=O)c(OC(C)=O)c1)O2", "observedValue": 34.6}
{"compound": "Cc1nc([C@H]2CC[C@H]3[C@@H]4CCC5=CC(=O)CC[C@]5(C)[C@H]4CC[C@]23C)cs1", "observedValue": 91.3}
{"compound": "COS(=O)(=O)CCN(CCOS(C)(=O)=O)S(C)(=O)=O", "observedValue": 107}
{"compound": "C=CCn1c(SCC(=O)Nc2ccc(/C(C)=N\\O)cc2)nnc1-c1cc(-c2ccc(Cl)cc2)nc2ccccc12", "observedValue": 49.4}
{"compound": "NC(N)=N/N=C\\c1cccc(OCc2ccccc2)c1", "observedValue": 83.2}
{"compound": "N#Cc1nc(-c2cccc(Br)c2)cc(-c2ccc(Nc3nc(N4CCCCC4)nc(N4CCCCC4)n3)cc2)c1N", "observedValue": 52.7}
{"compound": "NC(N)=N/N=C\\c1ccc(OCc2ccccc2)cc1", "observedValue": 70.9}
{"compound": "CC[C@H](Nc1nc(N)nc(C2CC2)c1C#N)c1nc2cccc(NCc3ccc(C(=O)NO)cc3)c2c(=O)n1-c1ccccc1", "observedValue": 7.25}
{"compound": "COc1cccc(OCC(O)CN2CCN(c3ccccc3)CC2)c1 (stereo not drawn)", "observedValue": 105}
{"compound": "N=C(N)c1ccc(-c2ccc(-c3cc(Cl)cc(Cl)c3)o2)nc1", "observedValue": -75.6}
{"compound": "CSCCC1NC(=O)C(C(C)=Nc2ccccc2)=C1O (stereo not drawn)", "observedValue": 116}
{"compound": "COc1cc(C2=NOC(c3cc(OC)c(OC)c(OC)c3)C2)ccc1OCCCCOc1cc2c(cc1OC)C(=O)N1CCC[C@H]1C=N2 (stereo partly drawn)", "observedValue": -9.51}
{"compound": "CCC(C)C1NC(=O)c2nc(oc2-c2ccccc2)-c2csc(n2)-c2csc(n2)-c2nc(oc2C)-c2coc(n2)CNC(=O)C(C(C)CC)NC1=O (stereo not drawn)", "observedValue": -61.3}
{"compound": "COc1cc(C(=O)/C=C/c2cn(-c3ccccc3)nc2-c2cccc(Nc3ccnc4cc(Cl)ccc34)c2)cc(OC)c1OC", "observedValue": 116}
{"compound": "COc1ccc(-c2nc(-c3cc(OC)cc(OC)c3)[nH]c2-c2ccc(OC)cc2)cc1", "observedValue": 61.2}
{"compound": "Nc1ccc(N(O)/C=C2\\C=CC=CC2=O)cc1N", "observedValue": 102}
{"compound": "Clc1ccc(Nc2ncnc3c2sc2ncccc23)cc1", "observedValue": 26.3}
{"compound": "CCOC(=O)Nc1ccc2nc(-c3cscn3)[nH]c2c1", "observedValue": 63.2}
{"compound": "Cc1nn(-c2ccc(Cl)cc2)c(=O)n1CCN1CCOCC1", "observedValue": 58.7}
{"compound": "CCOC(=O)C(=CNc1ccccc1Cl)C(=O)OCC", "observedValue": 97.1}

###

Items are presented alongside their recorded growth.
system: COLO 205 colon; assay: NCI-60 one-dose screen, 48 h (100 = growth as untreated, 0 = no growth, -100 = all killed); conditions: 10 µM unless noted
About 83,000 compounds went through this panel and 20% of them were active in at least one assay; those are over-represented in the sample as a whole.

{"cpdSmiles": "CCCCCCCCCCCCCC(=S)NCCCC[C@H](NC(=O)OCc1ccccc1)C(=O)Nc1ccccc1", "growth / %": 55.6}
{"cpdSmiles": "CC[C@H](Nc1nc(N)nc(N)c1Cl)c1nc2cccc(NCc3ccc(C(=O)NO)cc3)c2c(=O)n1-c1ccccc1", "growth / %": -20.1}
{"cpdSmiles": "CC(C)=CCC[C@H](C)c1ccc(C)c2c1OCN(CCO)C2", "growth / %": 119}
{"cpdSmiles": "COc1cccc(NC(=O)[C@H](C(C)C)n2c(=O)[nH]c3ccccc3c2=O)c1", "growth / %": 108}
{"cpdSmiles": "CC(C)N1CCN(c2ccncc2S(=O)(=O)N2CCN(C)CC2)CC1", "growth / %": 105}
{"cpdSmiles": "O=C(CSc1ccc(Cl)cc1)Nc1ccc(-c2nc3ccccc3s2)c(Cl)c1", "growth / %": 76.2}
{"cpdSmiles": "N#Cc1ccc(NC(=O)Nc2nc3ccc(OC(F)(F)F)cc3s2)cc1", "growth / %": -90.1}
{"cpdSmiles": "COc1cc2nccc(Oc3ccc(NC(=O)C4(C(=O)Nc5c(F)cc(F)cc5F)CC4)cc3)c2cc1Oc1ccc(N)cn1", "growth / %": 44.3}
{"cpdSmiles": "CCSc1ccc([C@@H]2[C@@H](N)C(=O)N2c2cc(OC)c(OC)c(OC)c2)cc1", "growth / %": -5.46}

###

system: SF-295 CNS; assay: NCI-60 one-dose screen, 48 h (100 = growth as untreated, 0 = no growth, -100 = all killed); details: 10 µM unless noted
About 83,000 compounds went through this panel and 20% of them were active in at least one assay; those are over-represented in the sample as a whole.
Items are presented alongside their recorded growth.
recordedEndpoint: growth (%)

{"compound": "COc1ccc([C@@H]2[C@@H](Oc3ccccc3)C(=O)N2c2cc(OC)c(OC)c(OC)c2)cc1F", "quantityUnit": "%", "observedValue": 3.68}
{"compound": "CCCc1n(Cc2ccc3ccccc3n2)cc[n+]1Cc1ccc2ccccc2n1", "quantityUnit": "%", "observedValue": 59.9}
{"compound": "C=CCN(CCOC(=O)c1ccc([N+](=O)[O-])cc1)CCOC(=O)c1ccc([N+](=O)[O-])cc1", "quantityUnit": "%", "observedValue": 107}
{"compound": "N#Cc1ccc(NC(=O)Nc2nc3ccc(OC(F)(F)F)cc3s2)cc1", "quantityUnit": "%", "observedValue": -25.8}
{"compound": "CCc1ccc2c(c1)N(CCO)C1=C(C(=O)OC1)C2c1cccc(Cl)c1 (centres undefined)", "quantityUnit": "%", "observedValue": -15.6}
{"compound": "Cc1nc2ccc(Nc3nc(Cl)nc(N4CCOCC4)n3)cc2n1Cc1ccccc1", "quantityUnit": "%", "observedValue": 87.3}
{"compound": "COc1cc2nccc(Oc3ccc(NC(=O)C4(C(=O)Nc5ccc(F)cc5)CC4)cc3)c2cc1OC(=O)c1ccc(N)cc1", "quantityUnit": "%", "observedValue": -74.6}
{"compound": "N#Cc1c(NN)n(C2OC(CO)C(O)C2O)c2ncnc(N)c12 (centres undefined)", "quantityUnit": "%", "observedValue": 56.9}
{"compound": "C=CCn1c(C)nc2cc(Nc3nc(N4CCCC4)nc4nc[nH]c34)ccc21", "quantityUnit": "%", "observedValue": 31.2}
